# Tested on: T47D
# TEST_DESCRIPTION: Growth inhibition of human T47D cells after 48 hrs by SRB assay
# Type: functional
# RECORDED_CONDITIONS: read-out: pTGI (converted)
QUANTITY_KIND: TGI

{"columns": ["COMPOUND", "TARGET_OR_TEST_SYSTEM", "OBSERVED_RESULT"],
 "data": [
  ["CCN(CC)c1ccc(C2=NN(C(C)=O)C(c3cc(OC)c(OC)c(OC)c3)C2)cc1 (stereo not drawn)", "T47D", "20 µM"],
  ["COc1cc(C2=NNC(c3ccc(N(C)C)cc3)C2)cc(OC)c1OC (stereo not drawn)", "T47D", "> 100 µM"],
  ["COc1cc(C2CC(c3ccc(N(C)C)cc3)=NN2C(C)=O)cc(OC)c1OC (stereo not drawn)", "T47D", "> 100 µM"],
  ["COc1cc(C2CC(c3cccc(Br)c3)=NN2C(C)=O)cc(OC)c1OC (stereo not drawn)", "T47D", "39.8 µM"],
  ["COc1ccc(/C=C\\c2cc(OC)c(OC)c(OC)c2)cc1O", "T47D", "> 100 µM"],
  ["COc1cc(C2CC(c3cccc(O)c3)=NN2C(C)=O)cc(OC)c1OC (stereo not drawn)", "T47D", "> 100 µM"],
  ["COc1ccc(C2CC(c3cc(OC)c(OC)c(OC)c3)=NN2)cc1 (stereo not drawn)", "T47D", "> 100 µM"],
  ["CCN(CC)c1ccc(C2CC(c3cc(OC)c(OC)c(OC)c3)=NN2)cc1 (stereo not drawn)", "T47D", "> 100 µM"]
]}

====

As shown below, each of these compounds has a reported log10 TGI value.
# Tested on: MDA-MB-435
# TEST_DESCRIPTION: Growth inhibition of human MDA-MB-435 cells after 48 hrs by SRB assay
# Type: functional
# RECORDED_CONDITIONS: MDA-MB-435, 48 h, read-out: pTGI (converted)
QUANTITY_KIND: log10 TGI (log10 of the value in nM)

{"columns": ["COMPOUND", "log10 TGI"],
 "data": [
  ["CCN(CC)c1ccc(C2=NN(C(C)=O)C(c3cc(OC)c(OC)c(OC)c3)C2)cc1 (stereo not drawn)", 2.60],
  ["CCN(CC)c1ccc(C2CC(c3cc(OC)c(OC)c(OC)c3)=NN2)cc1 (stereo not drawn)", 2.50],
  ["COc1ccc(C2CC(c3cc(OC)c(OC)c(OC)c3)=NN2)cc1 (stereo not drawn)", 4.30],
  ["COc1cc(C2CC(c3ccc(N(C)C)cc3)=NN2C(C)=O)cc(OC)c1OC (stereo not drawn)", 2.80],
  ["COc1ccc(/C=C\\c2cc(OC)c(OC)c(OC)c2)cc1O", 1.90],
  ["COc1cc(C2CC(c3cccc(Br)c3)=NN2C(C)=O)cc(OC)c1OC (stereo not drawn)", 2.40],
  ["COc1cc(C2=NN(C(C)=O)C(c3cc(OC)c(OC)c(OC)c3)C2)ccc1O (stereo not drawn)", 2.30],
  ["COc1cc(C2CC(c3cccc(O)c3)=NN2C(C)=O)cc(OC)c1OC (stereo not drawn)", 2.90]
]}

====

# Tested on: NCI-H322M
# TEST_DESCRIPTION: Growth inhibition of human NCI-H322M cells after 48 hrs by SRB assay
# Type: functional
# RECORDED_CONDITIONS: read-out: pTGI (converted)
As shown below, each of these compounds has a reported TGI value.

{"columns": ["COMPOUND", "TGI"],
 "data": [
  ["CCN(CC)c1ccc(C2CC(c3cc(OC)c(OC)c(OC)c3)=NN2)cc1 (centres undefined)", "> 100 µM"],
  ["COc1cc(C2=NN(C(C)=O)C(c3cc(OC)c(OC)c(OC)c3)C2)ccc1O (centres undefined)", "> 100 µM"],
  ["COc1cc(C2CC(c3cccc(O)c3)=NN2C(C)=O)cc(OC)c1OC (centres undefined)", "> 100 µM"],
  ["COc1cc(C2CC(c3cccc(Br)c3)=NN2C(C)=O)cc(OC)c1OC (centres undefined)", "> 100 µM"],
  ["COc1ccc(C2CC(c3cc(OC)c(OC)c(OC)c3)=NN2)cc1 (centres undefined)", "> 100 µM"],
  ["COc1cc(C2=NNC(c3ccc(N(C)C)cc3)C2)cc(OC)c1OC (centres undefined)", "> 100 µM"],
  ["CCN(CC)c1ccc(C2=NN(C(C)=O)C(c3cc(OC)c(OC)c(OC)c3)C2)cc1 (centres undefined)", "12.6 µM"],
  ["COc1cc(C2CC(c3ccc(N(C)C)cc3)=NN2C(C)=O)cc(OC)c1OC (centres undefined)", "63.1 µM"],
  ["COc1ccc(/C=C\\c2cc(OC)c(OC)c(OC)c2)cc1O", "79.4 µM"]
]}

====

# System: U-251
# TEST_DESCRIPTION: Growth inhibition of human U251 cells after 48 hrs by SRB assay
# Format: functional
# RECORDED_CONDITIONS: U-251, 48 h, read-out: pTGI (converted)
As shown below, each of these compounds has a reported TGI value.

{"columns": ["COMPOUND", "BOUND_OPERATOR", "TGI, µM"],
 "data": [
  ["COc1cc(C2CC(c3cccc(Br)c3)=NN2C(C)=O)cc(OC)c1OC (stereo not given)", "=", 31.6],
  ["COc1ccc(/C=C\\c2cc(OC)c(OC)c(OC)c2)cc1O", "=", 12.6],
  ["COc1cc(C2=NN(C(C)=O)C(c3cc(OC)c(OC)c(OC)c3)C2)ccc1O (stereo not given)", ">", 100],
  ["COc1cc(C2=NNC(c3ccc(N(C)C)cc3)C2)cc(OC)c1OC (stereo not given)", ">", 100],
  ["CCN(CC)c1ccc(C2=NN(C(C)=O)C(c3cc(OC)c(OC)c(OC)c3)C2)cc1 (stereo not given)", "=", 12.6]
]}

====

# System: SF-539
# TEST_DESCRIPTION: Growth inhibition of human SF539 cells after 48 hrs by SRB assay
# Format: functional
# RECORDED_CONDITIONS: SF-539, 48 h

{"columns": ["COMPOUND", "UNIT_NAME", "GI50"],
 "data": [
  ["COc1cc(C2CC(c3cccc(O)c3)=NN2C(C)=O)cc(OC)c1OC (centres undefined)", "nM", 2000],
  ["COc1cc(C2CC(c3cccc(Br)c3)=NN2C(C)=O)cc(OC)c1OC (centres undefined)", "nM", 316],
  ["COc1cc(C2=NNC(c3ccc(N(C)C)cc3)C2)cc(OC)c1OC (centres undefined)", "nM", 501],
  ["COc1cc(C2CC(c3ccc(N(C)C)cc3)=NN2C(C)=O)cc(OC)c1OC (centres undefined)", "nM", 1000],
  ["CCN(CC)c1ccc(C2CC(c3cc(OC)c(OC)c(OC)c3)=NN2)cc1 (centres undefined)", "nM", 316],
  ["COc1cc(C2=NN(C(C)=O)C(c3cc(OC)c(OC)c(OC)c3)C2)ccc1O (centres undefined)", "nM", 316],
  ["COc1ccc(C2CC(c3cc(OC)c(OC)c(OC)c3)=NN2)cc1 (centres undefined)", "nM", 6310],
  ["CCN(CC)c1ccc(C2=NN(C(C)=O)C(c3cc(OC)c(OC)c(OC)c3)C2)cc1 (centres undefined)", "nM", 316],
  ["COc1ccc(/C=C\\c2cc(OC)c(OC)c(OC)c2)cc1O [COMBRETASTATIN A4]", "nM", 39.8]
]}

====

# Tested on: UACC-62
# TEST_DESCRIPTION: Growth inhibition of human UACC62 cells after 48 hrs by SRB assay
# Format: functional
# RECORDED_CONDITIONS: UACC-62, 48 h, read-out: pTGI (converted)
As shown below, each of these compounds has a reported TGI value.

{"columns": ["COMPOUND", "UNIT_NAME", "BOUND_OPERATOR", "TGI"],
 "data": [
  ["COc1ccc(C2CC(c3cc(OC)c(OC)c(OC)c3)=NN2)cc1 (centres undefined)", "µM", ">", 100],
  ["CCN(CC)c1ccc(C2CC(c3cc(OC)c(OC)c(OC)c3)=NN2)cc1 (centres undefined)", "µM", "=", 50.1],
  ["CCN(CC)c1ccc(C2=NN(C(C)=O)C(c3cc(OC)c(OC)c(OC)c3)C2)cc1 (centres undefined)", "µM", "=", 12.6],
  ["COc1cc(C2=NN(C(C)=O)C(c3cc(OC)c(OC)c(OC)c3)C2)ccc1O (centres undefined)", "µM", ">", 100]
]}

====

# System: SR
# TEST_DESCRIPTION: Growth inhibition of human SR cells after 48 hrs by SRB assay
# Format: functional
# RECORDED_CONDITIONS: read-out: pTGI (converted)
As shown below, each of these molecules has a reported TGI value.

{"columns": ["MOLECULE", "BOUND_OPERATOR", "TGI (µM)"],
 "data": [
  ["COc1ccc(/C=C\\c2cc(OC)c(OC)c(OC)c2)cc1O [COMBRETASTATIN A4]", "=", 79.4],
  ["COc1cc(C2=NN(C(C)=O)C(c3cc(OC)c(OC)c(OC)c3)C2)ccc1O (centres undefined)", "=", 0.501],
  ["COc1ccc(C2CC(c3cc(OC)c(OC)c(OC)c3)=NN2)cc1 (centres undefined)", "=", 3.98],
  ["CCN(CC)c1ccc(C2=NN(C(C)=O)C(c3cc(OC)c(OC)c(OC)c3)C2)cc1 (centres undefined)", "=", 0.631],
  ["COc1cc(C2=NNC(c3ccc(N(C)C)cc3)C2)cc(OC)c1OC (centres undefined)", "=", 7.94],
  ["COc1cc(C2CC(c3ccc(N(C)C)cc3)=NN2C(C)=O)cc(OC)c1OC (centres undefined)", ">", 100],
  ["COc1cc(C2CC(c3cccc(O)c3)=NN2C(C)=O)cc(OC)c1OC (centres undefined)", ">", 100],
  ["CCN(CC)c1ccc(C2CC(c3cc(OC)c(OC)c(OC)c3)=NN2)cc1 (centres undefined)", "=", 1],
  ["COc1cc(C2CC(c3cccc(Br)c3)=NN2C(C)=O)cc(OC)c1OC (centres undefined)", ">", 100]
]}

Measured values drawn from ChEMBL document CHEMBL1221342 for this set.
